Tested target: human c-Met on cells (NCI-H441, NCI-H292, U87-MG) (human, UniProt P08581 25-1390)
Sequence (P08581 other isoform, or with tags, fused parts or gaps limits assumed): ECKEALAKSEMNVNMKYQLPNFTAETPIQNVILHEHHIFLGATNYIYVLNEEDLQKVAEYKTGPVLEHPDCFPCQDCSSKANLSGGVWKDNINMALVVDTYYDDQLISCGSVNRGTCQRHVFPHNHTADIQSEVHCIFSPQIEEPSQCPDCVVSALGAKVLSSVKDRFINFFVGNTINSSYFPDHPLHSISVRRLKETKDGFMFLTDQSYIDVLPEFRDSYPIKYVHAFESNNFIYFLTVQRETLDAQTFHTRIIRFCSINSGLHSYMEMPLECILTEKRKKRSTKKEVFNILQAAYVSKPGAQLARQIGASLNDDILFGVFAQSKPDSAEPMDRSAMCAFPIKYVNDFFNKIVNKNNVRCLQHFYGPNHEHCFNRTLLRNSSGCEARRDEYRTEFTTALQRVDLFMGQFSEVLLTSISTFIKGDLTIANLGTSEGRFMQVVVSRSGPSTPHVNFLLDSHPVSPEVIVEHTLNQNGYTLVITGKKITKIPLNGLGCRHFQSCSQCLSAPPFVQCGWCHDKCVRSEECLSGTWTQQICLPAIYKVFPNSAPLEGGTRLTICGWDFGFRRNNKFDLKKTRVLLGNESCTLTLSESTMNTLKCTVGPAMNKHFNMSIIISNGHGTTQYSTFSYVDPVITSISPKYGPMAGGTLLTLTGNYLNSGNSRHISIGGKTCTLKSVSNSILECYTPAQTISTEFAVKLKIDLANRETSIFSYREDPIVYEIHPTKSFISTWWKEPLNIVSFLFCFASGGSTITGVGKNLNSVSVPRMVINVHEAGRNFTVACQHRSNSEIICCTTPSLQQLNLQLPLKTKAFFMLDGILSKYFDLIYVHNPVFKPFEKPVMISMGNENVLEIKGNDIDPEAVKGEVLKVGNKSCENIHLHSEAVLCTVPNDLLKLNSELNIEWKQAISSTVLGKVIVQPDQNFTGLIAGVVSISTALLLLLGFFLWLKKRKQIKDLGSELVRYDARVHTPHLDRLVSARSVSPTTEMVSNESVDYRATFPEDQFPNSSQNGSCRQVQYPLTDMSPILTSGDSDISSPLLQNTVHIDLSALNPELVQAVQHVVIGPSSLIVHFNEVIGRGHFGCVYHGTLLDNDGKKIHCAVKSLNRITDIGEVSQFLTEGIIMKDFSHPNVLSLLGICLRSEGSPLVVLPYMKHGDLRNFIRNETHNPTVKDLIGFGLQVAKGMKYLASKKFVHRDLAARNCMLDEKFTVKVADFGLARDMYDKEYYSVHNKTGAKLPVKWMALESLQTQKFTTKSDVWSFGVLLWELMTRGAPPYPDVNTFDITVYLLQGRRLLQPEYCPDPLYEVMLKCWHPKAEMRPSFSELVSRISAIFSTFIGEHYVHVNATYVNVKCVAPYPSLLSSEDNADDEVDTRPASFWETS
Assay notes: cell-based or functional assay
Kindly supply the reported Inhibition of proliferation of U87-MG cells IC50 values for the records listed here.
Kindly format the answer as number then unit.

* P114AR7P93-G8 (designed binder, not shown: small tags and cut ends) LPAPKNLVVSRVTEDSARLSWTAPDAAFDSFWIRYFEFLGSGEAIVLTVPGSERSYDLTDLKPGTEYGVTINGVKGGRVSTPLSAIFTT | 104 nM

I'm hoping you can list Inhibition of proliferation of U87-MG cells IC50 for every binder here, please.
1. P114AR7P94-E5 (designed binder, not shown: small tags and cut ends) LPAPKNLVVSRVTEDSARLSWTAPDAAFDSFWIRYFEFLGSGEAIVLTVPGSERSYDLTGLKPGTEYAVNIMGVKGGRVSVPLSAIFTT
2. P114AR7P95-D4 (designed binder, not shown: small tags and cut ends) LPAPKNLVVSRVTEDSARLSWTAPDAAFDSFWIRYFEFLGSGEAIVLTVPGSERSYDLTGLKPGTEYVVQILGVKGGYISIPLSAIFTT
3. P114AR7P92-F6 (designed binder, not shown: small tags and cut ends) LPAPKNLVVSRVTEDSARLSWTAPDAAFDSFWIRYFEFLGSGEAIVLTVPGSERSYDLTGLKPGTEYVVNILGVKGGGLSVPLSAIFTT
4. P114AR7P95-B9 (designed binder, not shown: small tags and cut ends) LPAPKNLVVSRVTEDSARLSWTAPDAAFDSFWIRYFEFLGSGEAIVLTVPGSERSYDLTGLKPGTEYVVQILGVKGGSISVPLSAIFTT
5. P114AR7P93-H9 (designed binder, not shown: small tags and cut ends) LPAPKNLVVSRVTEDSARLSWTAPDAAFDSFWIRYFEFLGSGEAIVLTVPGSERSYDLTGLKPGTEYVVQIIGVKGGHISLPLSAIFTT
6. P114AR7P95-F10 (designed binder, not shown: small tags and cut ends) LPAPKNLVVSRVTEDSARLSWTAPDAAFDSFWIRYFEFTTAGEAIVLTVPGSERSYDLTGLKPGTEYVVNIMGVKGGSISPPLSAIFTT

[out]
["196 nM", "19.4 nM", "350 nM", "17.4 nM", "270 nM", "130 nM"]

[in] Item P114AR5P74-A5 (designed binder, not shown: small tags and cut ends) LPAPKNLVVSRVTEDSARLSWTAPDAAFDSFWIRYDEVVVGGEAIVLTVPGSERSYDLTGLKPGTEYYVNILGVKGGSISVPLSAIFTT has what recorded Inhibition of proliferation of U87-MG cells IC50?
[out] 464 nM
